# protocol-details: label from the status in PepcDB records
reported-metric: protein production

>>> data_value("MSMLKPSGLKAPTKILKPGSTALKTPTAVVAPVEKTISSEKASSTPSSETQEEFVDDFRVGERVWVNGNKPGFIQFLGETQFAPGQWAGIVLDEPIGKNDGSVAGVRYFQCEPLKGIFTRPSKLTRKV")
"not failed"
>>> data_value("MSLLLCDIGNSNANFLDDNKYFTLNIDQFLEFKNEQKIFYINVNEHLKEHLKNQKNFINLEPYFLFDTIYQGLGIDRIAACYTIEDGVVVDAGSAITIDIISNSIHLGGFILPGIANYKKIYSHISPRLKSEFNTQVSLDAFPQKTMDALSYGVFKGIYLLIKDAAQNKKLYFTGGDGQFLANYFDHAIYDKLLIFRGMKKIIKENPNLLYEGHHHHHH")
"not failed"
>>> data_value("LKKAGGALIAGVLKNGPADDAGIKPGDVLVAVNGKPIFNSSEMLNMVASLAPGKSATLTILRHGGQQDIQVRIGKRPS")
"failed"
>>> data_value("YTVEPVQDGERSVTLRRAGGTPLVAAMYHLPAAGSPDFVGLDLAATILADTPSGRLYHALVPTKLASGVFGFTMDQLDPGLAMFGAQLQPGMDQDKALQTLTATLESLSSKPFSQEELERARSKWLTAWQQTYADPEKVGVALSEAIASGDWRLFFLQRDRVRDAKLDDVQRAAVAYLVRSNRTEGRYIPTEKPQRAPLAQR")
"failed"

###

# protocol-details: label from the status in PepcDB records
reported-metric: protein production

Here's what some known entries look like.
>>> data_value("MSETDLLLKMVRQPVKLYSVATLFHEFSEVITKLEHSVQKEPTSLLSEENWHKQFLKFAQALPAHGSASWLNLDDALQAVVGNSRSAFLHQLIAKLKSRHLQVLELNKIGSEPLDLSNLPAPFYVLLPESFAARITLLVQDKALPYVRVSFEYWHA")
"not failed"
>>> data_value("MVNTRNIIRQFTPNWFTTIMGTGVVAIVLGHFSELHTLGAALWLINTCLFCVFCILYMLRWSLFPHEARQIFHHPSMSLFLGAIPMALATLINGLLMYGNTVFGQHLPQLALWLWYIDVVLVISIGWVVPYFMFSRQQHHLHSITAMWLLPIVAAEVAAATGGLLVAEFVHSTQAISILWLSYMLWGMSVLPAFAILSLLILRLALHKLPEKELAISSWLSIGPIGTGALAMMLLGQHAPDVLQSIGMQSFGIFLQQAAKLISLVLLGCGVWWLGIAMFASLHHLKHGIPFNLGWWGLTFPLGVFTLALSQLGQLLGWNAFDHIAVILSVILVGLWSCVAVKTIQGAYRGQLFFSPCLQQLQQQQKACAQSETA")
"failed"
>>> data_value("MRLSAEQVVEVLRAAGESTRLRLLALLAAEELSVLELCRILDQSQPRVSRHLKLLAEAGLVERFPDGAWVFYRLAAKSPGRLLVEQALDLIDEGDETVQSDADKLAAVRAERSTDAQAYFARNAARWNEIRSLYVDEAEVEAAILRATGEGPFDEMVDLGAGAGRMLTLLGKRAANALGLDLSQQMLNIARDEVSKAGLTACELRHGDIFRTGLPGGCADLVTVHQVLHYLTDPATAVAEAARLVTPGGLLLIADFAPHGHEFLREVHQHRRLGFDDAEIVAWLQAAGLVLESNIALPPATAEGLTVKIWTARRPGKASLERSAA")
"failed"
>>> data_value("MGIELVMENAHWFWLSLGGLLLAAEMLGGSGYLLWSGLSAVLVGLLTWIMPLGWPWQGTIFAILTIVTALLWWYWLRKRTLSRPPSTLNQRGQQLVGLRATVSESVTNGFGRVNIGDSSWRVKSEQDLPAGTHVEVIAVDGITLHVRSIER")
"failed"
>>> data_value("MRNVLITGATSGIGLSLVEKYLQAGDKVYACGRNFQAYLKSSSLIDAEKSDKLVKIVFDMNHHDAIIDVLTEVESLDIAILNAGTCEYIDDAMGFDAELFERVINTNVISIGYCLQALLPKMKQKGHLALMGSSAAFVPFQRAEAYGASKAAIHYLAQSLQLDIPKERLTISVIAPGFVKTPLTDKNDFPMPMLIEPDKAADHIINGINNNKQHIHFPFPFTRFLILMGALPSCIWQWMALRMKRK")
"failed"

# input Which value of protein production has been reported for MSDQVPKPHRHHIWRITRRTLSKSWDDSIFSESAQAAFWSALSLPPLLLGMLGSLAYVAPLFGPDTLPAIEKSALSTAHSFFSPSVVNEIIEPTIGDITNNARGEVASLGFLISLWAGSSAISAFVDAVVEAHDQTPLRHPVRQRFFALFLYVVMLVFLVATAPVMVVGPRKVSEHIPESLANLLRYGYYPALILGLTVGVILLYRVALPVPLPTHRLVLGAVLAIAVFLIATLGLRVYLAWITRTGYTYGALATPIAFLLFAFFGGFAIMLGAELNAAVQEEWPAPATHAHRLGNWLKARIGVGTTTYSSTAQHSAVAAEPPS in the records?
# output failed

# input MGHHHHHHSHMSEYLAAADYLPHSAPMVLVDEVIHVDDEHAHCRVAVSREGILAPFLNAQGHLPAWFGIEIIAQTIGVWSGWHGRQSLGLQEKPRPGMLLGGRGYHCQQAIFPAGSLLDVTVMLVMRDEKIGSFEGEIAIDGEKYASGRLNTYQPDDRELNILLEQGKPL , same question.
# output failed

# input Check FEPRSLITSDKGFVTMTLESLEEIQDVSCAWKELNRKLSSNAVSQITRMCLLKGNMGVCFDVPTTESERLQAEWHDSDWILSVPA too.
# output not failed

# input Also MSDSIVGIPREDHQTFLYNPFTSQRYELPPLTIEDPHLKSVLRYGVLTGDPREDNTYACLVADSLHANLMAIGNTHPPSLHLYYVAKRNGEWDQNWSVTRIPTHNLPVVGSTIDSISPSADKISIIGWGHSFDFTFQSQDWNVTNINYTMEWNPFHGQSFDQIKHRLQIDPQTLDIIGTKTDRERVKNRIWFVINQIISHIDGVWVEVRA , if possible.
# output failed

# input Quick one: MTASFPTRVYLLRHAKAAWAAPGERDFDRGLNEAGFAEAEIIADLAADRRYRPDLILSSTAARCRQTTQAWQRAFNEGIDIVYIDEMYNARSETYLSLIAAQTEVQSVMLVGHNPTMEATLEAMIGEDLLHAALPSGFPTSGLAVLDQDDSAASGKNRWRLIDFLAPGK
# output not failed

###

# protocol-details: label from the status in PepcDB records
reported-metric: protein production

These solved cases illustrate the format of a correct answer.
>>> data_value("MAAAGAPDGMEEPSMDTEAEAVATEAPARPLNCVEAEAVVGTAAEDSCDARGNLQPAPAQPPGDPAAQASVSNGEDAGGGAGRELVDLKIIWNKTKHDVKVPLDSTGSELKQKIHSITGLPPAMQKVMYKGLVPEDKTLREIKVTSGAKIMVVGSTINDVLAVNTPKDAAQQDAKAEESKKEPLCRQKQHRKVLDKGKPEDVMPSVKGAQERLPTVPLSGMYNKSGGKVRLTFKLEQDQLWIGTKERTEKLPMGSIKNVVSEPIEGHEDYHMMAFQLGPTEASYYWVYWVPTQYVDAIKDTVLGKWQYF")
"failed"
>>> data_value("MEGSIDHHVRKAIQIGVNPLQAIQMASLNAAECFKLAKKGAIAPGFTADLLFIEDLQSLAITHVFKNGTCVAKNGKLIVPLEHHHHHH")
"failed"
>>> data_value("MPKVSVVIPAYNAMPYLPETLESVLRQTYHDFEVVVVNDGSSDNTEEWVSQILDPRLKLISQANQGLAGARNTGIVNASGEYIAFLDADDIWEPTKLAKQVSVLDENPTVGLVYTWVAYIDEQGKSTGKIFKNQVEGYVWPQLTEHNIVECGSVALVRRVCFEKMGLFDRNLGSYVEDWDMWLRIATSYDFKVVKEALVYYRQRSNSASKNWEAMAHSFAIVIEKAFATASQDLQVLKNKSYGFTYLCLAWKPLQSFQKDYQKSREFCQQAVAYYPSLRFSQEYIRLSIAINLMRWFGADGYSKLLPLFHTMRRVKLALQK")
"failed"
>>> data_value("EADMLFSVTVPGSTANLGPGFDSVGMALSRYLKLTVFESDKWSFEAETETVAGIPAGTDNLIYQVAKRTADLYGKEMPPVHVKVWSDIPLARGLGSSAAAIVAAIELADELCGLKLSEADKLHLASLEEGHPDNAGASLVGGLVIGLHEDDETQM")
"failed"
>>> data_value("MSLNIKEASEKSGVSADTIRYYERIGLIPPIHRNESGVRKFGAEDLRWILFTRQMRRAGLSIEALIDYLALFREGEHTLEARAELLKKQRIELKNRIDVMQEALDRLDFKIDNYDTHLIPAQEELKDFNVERSNEGHHHHHH")
"not failed"

# input Tell me the measured protein production of MNLILTILSALGSFIVTNVDDIFVLMLLFSQARSQAKTGNSGIVSMESKGNRIYPRDIVIGQYLGFALLVLISLLATFGVTLIPDQWVGLLGLIPIYLGVKLFIKGEDEDEGNILSNLNKFNKFYLSVAFITFANGGDNIGIYVPFFSTLNNNQLIITVVTFFIMVAVWCLIGYRLARFRYVSETLEKYGRWIIPIVFIGLGIYIMVENETFRAILSLVN , please.
# output failed

# input // next record KTPIQVLHEYGMKTKNIPVYECERSDVQIHVPTFTFRVTVGDITCTGEGTSKKLAKHRAAEAAINILKANA
# output not failed

# input Entry MKQIIIAIGREFGSGGHLVAKKLAEHYNIPLYSKELLDEVAKDGRYSKEVLERFDEKPMNFAFIPVPAGGTTISLEQDIAIRQFNFIRKKANEEKESFVIVGRCAEEILSDNPNMISAFILGDKDTKTKRVMEREGVDEKTALNMMKKMDKMRKVYHNFYCESKWGDSRTYDICIKIGKVDVDTATDMIIKYIDSRDN please
# output not failed

# input Also check MTTTKDVPIDLKASGKTAADTSYSFSSDTKSVTVTGTKAALAKLKSLPVNVDVTNVDSTTTKTVDVSTSDEDGISSVSPTSVKVKITVKNDLEHHHHHH
# output not failed

# input Next record, please: MEALKRKIEEEGVVLSDQVLKVDSFLNHQIDPLLMQRIGDEFASRFAKDGITKIVTIESSGIAPAVMTGLKLGVPVVFARKHKSLTLTDNLLTASVYSFTKQTESQIAVSGTHLSDQDHVLIIDDFLANGQAAHGLVSIVKQAGASIAGIGIVIEKSFQPGRDELVKLGYRVESLARIQSLEEGKVSFVQEVHS
# output not failed

# input How about this sequence: MTAEIDIQNSIRLELSRHGHYVFRANVGKVRMPNGRIFDTGLPKGFPDLFGFRGTDGKMFFIEVKNEIGKLRQEQKNFQQAMEITPAIGVARSAEEALKIVEGLEHHHHHH
# output failed

# input // next record MELWTHPTPAAPRLATSTRTRWRRTSRCSQPWATTPGTNSSDASRTPTTASASATSKPQSASARARSVRRSPDCTPRAWSRGARKDRGATTNRPRRPKFCSKRSTTCEATMSNDNETMVADRDPEETREMVRERYAGIATSGQDCCGDVGLDVSGDGGCCSDETEASGSERLGYDADDVASVADGADLGLGCGNPKAFAAMAPGETVLDLGSGAGFDCFLAAQEVGPDGHVIGVDMTPEMISKARENVAKNDAENVEFRLGEIGHLPVADESVNVVISNCVVNLAPEKQRVFDDTYRVLRPGGRVAISDVVQTAPFPDDVQMDPDSLTGCVAGASTVDDLKAMLDEAGFEAVEIAPKDESTEFISDWDADRDLGEYLVSATIEARKPARDD
# output failed

# input Same for MTVRYFAAAAAAAGIETESLEIATGTSVAELVERLGARNPELARVLKRCSYLCDEVAVRDMAKPLVTPQTVDVLPPFAGGLEHHHHHH
# output failed

# input Param item: MASTGASRSLAASPRPPQGRSSRQDKYSVLLPTYNERENLPLIVWLLVKSFSESAINYEIIIIDDGSPDGTREVAEQLAEIYGPDRILLRPREKKLGLGTAYIHGIKHATGNYVIIMDADLSHHPKFIPEFIRKQKEGNFDIVSGTRYKGNGGVYGWDLKRKIISRGANFITQILLRPGASDLTGSFRLYRKEVLQKLIEKCVSKGYVFQMEMIVRARQMNYTIGEVPISFVDRVYGESKLGGNEIVSFLKGLLTLFATT
# output failed

# input Also MIGDGIENSPLLTDLAFPYRLLGAGKESRECLFLLHGSGVDETTLVPLARRIAPTATLVAARGRIPQEDGFRWFERIDPTRFEQKSILAETAAFAAFTNEAAKRHGLNLDHATFLGYSNGANLVSSLMLLHPGIVRLAALLRPMPVLDHVPATDLAGIRTLIIAGAADETYGPFVPALVTLLSRHGAEVDARIIPSGHDIGDPDAAIVRQWLAGPIAIAQAD , if possible.
# output not failed

The reported numbers originate from a protein production outcome set (Wang et al. 2014).
